Origin of values: patent US11718628B2

Parameter half-life at 1 µM: see the listing below.
assay: Half-life in human liver microsomes; assay type: in vitro ADME; settings: human, liver microsomes, NADPH, 37° C., read-out: G: half-life human liver microsomes
Hi! Could you send only the number? It should be in min, unit omitted.

Here's what some known entries look like.
CC(C)OC(=O)Nc1ccc(-c2cncc(-c3ccnc(C4OCCO4)c3)c2)c(Cl)c1 [drawing 371]    13.5
CC(C)(C)c1cc(-c2cc(-c3ccc(C(=O)N4CCC(O)CC4)cc3Cl)c3ccncc3c2)ccn1    119
CC(C)NS(=O)(=O)Nc1ccc(-c2cncc(-c3ccnc(C(C)(C)C)c3)c2)c(Cl)c1    27.3
CC(C)(O)c1cc(-c2cncc(-c3ccc(NS(C)(=O)=O)cc3Cl)c2)ccn1    116
CC(C)(C)c1cc(-c2cc(-c3ccc(C(=O)N4CCC(O)CC4)cc3Cl)c3cccnc3c2)ccn1    2.07
CC(C)(C)c1cc(-c2cncc(-c3ccc(C(=O)N4CCC(F)C(O)C4)cc3Cl)c2)ccn1 (centres unmarked)    12.2
CC(C)OC(=O)Nc1ccc(-c2cncc(-c3ccnc(C(C)(C)C)c3)c2)c(Cl)c1 [drawing 372]    69.9
CC(C)(CO)c1cc(-c2cncc(-c3ccc(NS(C)(=O)=O)cc3Cl)c2)ccn1    6.5
CC(C)(C)c1cc(-c2cncc(-c3ccc(NC(=O)OC4CCC(O)CC4)cc3Cl)c2)ccn1 (centres unmarked)    31.3
CC(C)(C)c1cc(-c2cncc(-c3ccc(C(=O)N4CCC[C@H]4CO)cc3Cl)c2)ccn1    5.52

Continue with the compound presented below.
In: Given the entry `CC(C)(C)c1cc(-c2cncc(-c3ccc(C(=O)N4CCC[C@@H]4CO)cc3Cl)c2)ccn1` , report its measured half-life at 1 µM.
Out: 10.1

###

Reported Intravenous Delivery (IV) T1/2 is given for each of the following compounds.
Assay: In vivo pharmacokinetic properties in rats (IV and PO)
Set-up: species or system male Sprague Dawley rats
Conditions: IV, 2 mg/kg
Experimental: The in vivo pharmacokinetic properties of compounds by both intravenous and oral administration were evaluated in male Sprague Dawley rats or C57BL/6J mice. Animals were housed in cages with clean bedding. Certified rodent diet was provided. Water was available ad libitum. Environmental controls for the animal room were set to maintain a temperature of 22° C. to 25° C., humidity of 40-70% RH, and a 12-hour light/12-hour dark cycle. […]
Quick reminder: number only, in h, skip the unit.

Examples with their reported Intravenous Delivery (IV) T1/2 follow.
CC(C)OC(=O)Nc1ccc(-c2cncc(-c3ccnc(C(C)(C)C)c3)c2)c(Cl)c1    5.92
CC(C)(C)c1cc(-c2cncc(-c3ccc(C(=O)N4CCC(O)CC4)cc3Cl)c2)ccn1    1.53
CC(C)(C)c1cc(-c2cccc(-c3ccc(C(=O)N4CCC(O)CC4)cc3Cl)c2)ccn1    1.91
CC(C)(C)c1cc(-c2cncc(-c3c(Cl)cc(C(=O)N4CCC(O)CC4)cc3Cl)c2)ccn1    3.19
CC1(O)CCN(C(=O)c2ccc(-c3cncc(-c4ccnc(C(C)(C)C)c4)c3)c(Cl)c2)CC1    1.14

Shift focus to the following entry.
In: # Intravenous Delivery (IV) T1/2 lookup, item `Cc1cc(C(=O)N2CCC(O)CC2)ccc1-c1cncc(-c2ccnc(C(C)(C)C)c2)c1`
Out: 3.11

###

test: In vivo pharmacokinetic properties in rats (IV and PO); set-up: species or system male Sprague Dawley rats; conditions: male, Sprague Dawley, rat, plasma, IV, 2 mg/kg, read-out: Intravenous Delivery (IV) CL
measure: clearance (mL/min/kg)
Quick reminder: number only, in mL/min/kg, skip the unit.

Examples with answers:
CC(C)(C)c1cc(-c2cncc(-c3ccc(C(=O)N4CCC(O)CC4)cc3)c2F)ccn1 [Compound Z-866]    31.7
O=C(c1ccc(-c2cncc(-c3ccnc4c3OCCO4)c2)c(Cl)c1)N1CCC(O)CC1 [Compound Z-806]    12.8
CC(C)(C)c1cc(-c2cncc(-c3ccc(NS(C)(=O)=O)cc3Cl)c2)ccn1 [Compound Z-803]    5.2

In: Returns the measured clearance for the input compound. Input: CC(C)(O)c1cc(-c2cncc(-c3ccc(C(=O)N4CCC(O)CC4)cc3Cl)c2)ccn1 [Compound Z-796]
Out: 8.78

###

assay: In vivo pharmacokinetic properties in rats (IV and PO); set-up: species or system male Sprague Dawley rats; conditions: IV, 2 mg/kg
measure: Intravenous Delivery (IV) CL (mL/min/kg)
Quick note: give the figure in mL/min/kg, leave out the unit.

Some compounds with recorded Intravenous Delivery (IV) CL:
CC(C)(C)c1cc(-c2cncc(-c3c(Cl)cc(C(=O)N4CCC(O)CC4)cc3Cl)c2)ccn1    10.7
CC(C)OC(=O)Nc1ccc(-c2cncc(-c3ccnc(C(C)(C)C)c3)c2)c(Cl)c1    15.7
CC1(O)CCN(C(=O)c2ccc(-c3cncc(-c4ccnc(C(C)(C)C)c4)c3)c(Cl)c2)CC1    16.7

In: Reported Intravenous Delivery (IV) CL for `Cc1cc(C(=O)N2CCC(O)CC2)ccc1-c1cncc(-c2ccnc(C(C)(C)C)c2)c1` : what is it?
Out: 5.24

In: Next: `CC(C)(C)c1cc(-c2cncc(-c3ccc(C(=O)N4CCC(O)CC4)cc3Cl)c2)ccn1`
Out: 30.1

In: Now consider `CC(C)(C)c1cc(-c2cccc(-c3ccc(C(=O)N4CCC(O)CC4)cc3Cl)c2)ccn1` .
Out: 13.1

###

test: Kinetic solubility; assay type: physicochemical; settings: aqueous buffer, kinetic from dmso stock, pH 7.4 buffer, room temperature, 1.0% DMSO, read-out: I: kinetic solubility class
In this section, each of the compounds is paired with its reported solubility kinetic at 24 h.

CC(C)(C)c1cc(-c2cc(-c3ccc(C(=O)N4CCC(O)CC4)cc3Cl)cc3ncccc23)ccn1    < 0.01 mg/mL
Cc1c(-c2ccnc(C(C)(C)C)c2)cncc1-c1ccc(C(=O)N2CCCC(O)C2)cc1Cl (stereo not drawn)    < 0.01 mg/mL

In: Looking for the measured solubility kinetic at 24 h of `CC(C)(C)c1cc(-c2cc(-c3ccc(C(=O)N4CCC(O)CC4)cc3Cl)c3cccnc3c2)ccn1` , can you help?
Out: < 0.01 mg/mL

###

assay: Kinetic solubility; format: physicochemical; conditions: aqueous buffer, kinetic from dmso stock, pH 7.4 buffer, room temperature, 1.0% DMSO, read-out: I: kinetic solubility class
Some molecules, each annotated with its measured solubility kinetic at 24 h.

Examples with answers:
CC(C)(C)c1cc(-c2cncc(-c3ccc(NC(=O)OC4CCNCC4)cc3Cl)c2)ccn1    < 10 µg/mL
CC(C)(C)c1cc(-c2cccc(-c3ccc(C(=O)NS(=O)(=O)C4CC4)cc3Cl)c2)ccn1    10 to 60 µg/mL
O=C(c1ccc(-c2cncc(-c3ccnc(C4CC4)c3)c2)c(Cl)c1)N1CC2CCC(C1)C2O (stereo not drawn)    10 to 60 µg/mL
CC1(O)CCC(C(=O)c2ccc(-c3cncc(-c4ccnc(C(C)(C)CO)c4)c3)c(Cl)c2)CC1 (stereo not drawn)    10 to 60 µg/mL
O=C(Nc1ccc(-c2cncc(-c3ccnc4c3OCCO4)c2)c(Cl)c1)OC1CC1    < 10 µg/mL
CC1(O)CCN(C(=O)c2ccc(-c3cncc(-c4ccnc(C(C)(C)C)c4)c3)c(Cl)c2)CC1 [drawing 369]    10 to 60 µg/mL
CC1(O)CCN(C(=O)c2ccc(-c3cncc(-c4ccnc(C(C)(C)C)c4)c3)c(Cl)c2)C1 (stereo not drawn)    10 to 60 µg/mL
CC(C)(C)c1cc(-c2cncc(-c3ccc(C(=O)N4CC(CO)C4)cc3Cl)c2)ccn1    10 to 60 µg/mL
CC(C)(C)c1cc(-c2cncc(-c3ccc(C(=O)N4CCC(O)CC4)cc3Cl)c2F)ccn1    10 to 60 µg/mL
CC(C)OC(=O)Nc1ccc(-c2cncc(-c3ccnc(C4(F)CCC4)c3)c2)c(Cl)c1    < 10 µg/mL

In: solubility kinetic at 24 h lookup needed for CC(C)(C)c1cc(-c2cccc(-c3ccc(C(=O)N4CCC(O)CC4)cc3Cl)c2)ccn1 [drawing 377] , thanks.
Out: < 10 µg/mL

In: Please give the result for CC(C)OC(=O)Nc1ccc(-c2cncc(-c3ccnc(C(C)(C)C)c3)c2)c(Cl)c1 [drawing 372] too.
Out: < 10 µg/mL

In: Lookup `CC(C)(C)c1cc(-c2cncc(-c3cc(C(=O)N4CCC(O)CC4)ccc3Cl)c2)ccn1`
Out: 10 to 60 µg/mL

In: Also check `CC1(O)CN(C(=O)c2ccc(-c3cncc(-c4ccnc(C(C)(C)C)c4)c3)c(Cl)c2)C1`
Out: 10 to 60 µg/mL

###

Examples of compounds with documented log10(half-life at 1 µM) follow.
test: Half-life in mouse liver microsomes; assay type: in vitro ADME; conditions: mouse, liver microsomes, read-out: H: half-life of mouse liver microsomes
Annotation: log10 of half-life at 1 µM, min basis.

Worked cases, answers included:
CC(C)(C)c1cc(-c2cccc(-c3ccc(NS(C)(=O)=O)cc3Cl)c2F)ccn1    2.31
O=C(c1ccc(-c2cncc(-c3ccnc4c3CCC4)c2)c(Cl)c1)N1CCC(O)CC1    1.44
CC(C)(C)c1cc(-c2cncc(-c3ccc(NS(C)(=O)=O)cc3Cl)c2)ccn1 [drawing 346]    1.78
CC(C)(C)c1cc(-c2cncc(-c3ccc(NC(=O)OC4CCNCC4)cc3Cl)c2)ccn1    3.04
CC(C)(C)c1cc(-c2cncc(-c3cc(C(=O)N4CCC(O)CC4)ccc3Cl)c2)ccn1    3.27

In: Which log10(half-life at 1 µM) reading was recorded for the compound `CC(C)(CF)c1cc(-c2cncc(-c3ccc(C(=O)N4CCC(O)CC4)cc3Cl)c2)ccn1` ?
Out: 1.89

In: Also CC(C)(C)c1cc(-c2cc(-c3ccc(C(=O)N4CCC(O)CC4)cc3Cl)ncn2)ccn1 [drawing 376] ?
Out: 1.83

In: Next compound up: `Cc1ncc(-c2ccc(C(=O)N3CCC(O)CC3)cc2Cl)cc1-c1ccnc(C(C)(C)C)c1`
Out: 1.62

In: Param item: `CC(C)(C)c1cc(-c2cc(-c3ccc(C(=O)N4CCC(O)CC4)cc3Cl)cc3ncccc23)ccn1`
Out: 1.01

In: `CC(C)(C)c1cc(-c2cncc(-c3ccc(C(=O)N4CCC(O)(O)C(F)(F)C4)cc3Cl)c2)ccn1` ?
Out: 1.51

In: Next up: CC(C)(C)c1cc(-c2cncc(-c3ccc(C(=O)N4CCC(=O)C(F)C4)cc3Cl)c2)ccn1 (stereo not drawn)
Out: 0.29

In: `CC1(O)CN(C(=O)c2ccc(-c3cncc(-c4ccnc(C(C)(C)C)c4)c3)c(Cl)c2)C1` , same question.
Out: 1.60

In: Note, next up: `CC(C)(C)c1cc(-c2cc(-c3ccc(C(=O)N4CCC(O)CC4)cc3Cl)c3ccncc3c2)ccn1`
Out: 2.03

In: What do we get for CC(C)OC(=O)Nc1ccc(-c2cncc(-c3ccnc(C(C)(C)C)c3)c2)c(Cl)c1 [drawing 372] ?
Out: 2.35

In: Then what about the compound `CC(C)(C)c1cc(-c2cncc(-c3ccc(C(=O)N4CCC(O)CC4)cc3Cl)c2F)ccn1` ?
Out: 1.59

In: And `CC(C)(C)c1cc(-c2cccc(-c3ccc(NS(=O)(=O)C(F)(F)F)cc3Cl)c2F)ccn1` ?
Out: 1.91

In: Continue with `O=C(c1ccc(-c2cncc(-c3ccnc(C4CC4)c3)c2)c(Cl)c1)N1CC[C@H](O)C1`
Out: 1.94

In: And `CC(C)(C)c1cc(-c2cc(C#N)cc(-c3ccc(C(=O)N4CCC(O)CC4)cc3Cl)c2)ccn1` ?
Out: 2.08
